Recorded Kd, one value per entry.
# system: T1, Hair Keratin KRTHB1 Basic (UniProt Q14533 304-505, limits assumed)
# T1 construct: The keratin was printed onto a bare gold SPRi chip; also called natural hair keratin
# T1 sequence (looked up): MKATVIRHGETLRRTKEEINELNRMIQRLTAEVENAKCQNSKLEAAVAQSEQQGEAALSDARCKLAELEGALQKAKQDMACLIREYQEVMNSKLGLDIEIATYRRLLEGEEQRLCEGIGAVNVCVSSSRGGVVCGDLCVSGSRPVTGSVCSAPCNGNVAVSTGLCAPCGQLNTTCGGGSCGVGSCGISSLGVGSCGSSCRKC
# procedureDetails: SPRi (PlexArray HT), keratin printed on gold chip, peptide injected, 4 C
No end group written: not given here.

binder	Kd
CTPPSCCQLHHA (also called Aquis peptide 2; Peptide Aquis 2) [Aquis Pep 2]	2500 nM
FCGFPSCSTSG (also called Aquis peptide 1; Peptide Aquis 1) [Aquis Pep1]	365 nM
GGVCGPSPPCITT (not fully specified; cysteine pairing not given here, Control peptide developed by Khairpep; also called KP peptide; third peptide) [KP]	814 nM

All values here come from patent US11712410.
